In this section we review reported % Inh of Gli1 reporter, CM N = 3 values for a set of binders.
target: Shh-N in conditioned medium (human, UniProt Q15465 24-197, N-terminal palmitoyl modification; lacks the C-terminal cholesterol moiety); assay: cell-based or functional assay
Write the figure, then the unit, nothing else.

// below: answered binders
- binder: "1C8 (antibody, V domains shown, fully human XenoMouse hybridoma antibody; tested as hybridoma supernatant and as purified antibody; also called MAb 1C8) VH: EVQLVESGGGLIQPGGSLRLSCAVSGFTVSSNCMNWVRQAPGKGLEWVSVIYSGGKTAYADSVKGRFTISRDNSKNTLCLQMNSLRAEDTAVYYCARDSSMVVGLGYFDLWGRGTLVTVSS VL: SYELTQPPSVSVSPGLTASITCSGDKLGYKYASWYQQKPGQSPVLVIYQDIKRPSGIPERFSGSNSGNTATLTISGTQAMDEADYYCQAWDSSTVVFGGGTKLTVL"
  % Inh of Gli1 reporter, CM N = 3: "43%"
- binder: "6D7 (antibody, V domains shown, fully human XenoMouse hybridoma antibody; also called MAb 6D7) VH: QVQLQESGPGLVKPSQTLSLTCTVSGGSINSGGFYWSWIRQHPGKNLEWIGSIYYSGNTYYNPSLKSRVTISVDTSKNQFSLKLTSVTAADTAVYYCARGNDSGDYDWYFDLWGRGTLVTVSS VL: SYELTQPPSVSVSPGQTASITCSGEKLGYKYVCWYQQKPGQSPVLVIFHDNKRPSGIPERFSGSNSGNTATLTISGAQAMDEADYYCQAGDSSAVFGGGTKLTVL"
  % Inh of Gli1 reporter, CM N = 3: "-1%"

Below: the item to evaluate.
query: For the binder 1A12 (antibody, V domains shown, fully human XenoMouse hybridoma antibody; tested as hybridoma supernatant and as purified antibody; also called MAb 1A12) VH: QVYLVESGGGVVQPGRSLRLSCAASGFTFSSYGMHWVRQAPGKGLEWVAVIWYDGSNEYYADSVKGRFTISRDNSKNTLYLQMNSLRAEDTAVYYCARDLYYYGSGSPFDYWGQGTLVTVSS VL: EIVMTQSPATLSVSPGERATLSCRASQSVSSNLAWYQQKPGQAPRLLIFGVSIRATGIPARFSGSGSGTEFTLTISSLQSEDFAVYYCQQYNDWPRPGFGGGTKVEIK , what % Inh of Gli1 reporter, CM N = 3 is on record?
result: 43%
